# key: entry, value: IC50
- Tested on: A549
- experiment: Antiproliferative activity against human A549 cells after 48 hrs by MTT assay
- Assay type: functional, cell-based
- measurementConditions: A549, 48 h

Solved cases (6 shown):
| smilesRepresentation | IC50 |
| --- | --- |
| CCC1=C(O)C(=O)c2cc(OC)cc(OC)c2C1=O | > 100 µM |
| COc1ccc(CCC2=C(O)C(=O)c3cc(OC)cc(OC)c3C2=O)cc1 | 82.4 µM |
| COc1cc(OC)c2c(c1)C(=O)C(O)=C(CCc1ccccc1)C2=O | > 100 µM |
| COc1cc(OC)c2c(c1)C(=O)C(Cl)=C(CCC1CCCCC1)C2=O | 63 µM |
| CCCCCCCCCCCCC1=C(O)C(=O)c2cc(OC)cc(OC)c2C1=O | > 100 µM |
| CCCCCCC1=C(O)C(=O)c2cc(OC)cc(OC)c2C1=O | > 100 µM |

Challenge: Data request, read-out IC50, for `CCCCC1=C(Cl)C(=O)c2cc(OC)cc(OC)c2C1=O`
Response given: 24.1 µM

Challenge: Check `CCCCCCCCCCC1=C(O)C(=O)c2cc(OC)cc(OC)c2C1=O` too.
Response given: > 100 µM

Challenge: Check `COc1cc(OC)c2c(c1)C(=O)C(O)=CC2=O` too.
Response given: > 100 µM

----------
- System: HeLa
- experiment: Antiproliferative activity against human HeLa cells after 48 hrs by MTT assay
- Format: functional, cell-based
readoutLabel: IC50

| smilesRepresentation | IC50 |
| --- | --- |
| COc1cc(OC)c2c(c1)C(=O)C(O)=C(CCc1ccccc1)C2=O | > 100 µM |
| COc1cc(OC)c2c(c1)C(=O)C(Cl)=C(CCC1CCCCC1)C2=O | 21.2 µM |
| COc1ccc(CCC2=C(O)C(=O)c3cc(OC)cc(OC)c3C2=O)cc1 | 72.8 µM |
| CCCCCCC1=C(O)C(=O)c2cc(OC)cc(OC)c2C1=O | > 100 µM |

Challenge: Query the reported IC50 for HeLa; item: `CCCC1=C(O)C(=O)c2cc(OC)cc(OC)c2C1=O`
Response given: > 100 µM

Challenge: Check `COc1cc(OC)c2c(c1)C(=O)C(O)=CC2=O` too.
Response given: > 100 µM

----------
# key: entry, value: pIC50
- Test system: HeLa
- experiment: Antiproliferative activity against human HeLa cells after 48 hrs by MTT assay
- Type: functional, cell-based
# reply with the number alone; pIC50 is -log10 of concentration in mol/L

Solved cases (2 shown):
| smilesRepresentation | targetOrTestSystem | pIC50 |
| --- | --- | --- |
| COC1=C(CCC2CCCCC2)C(=O)c2c(OC)cc(OC)cc2C1=O | HeLa | 4.15 |
| CCCCC1=C(Cl)C(=O)c2cc(OC)cc(OC)c2C1=O | HeLa | 4.65 |

Challenge: Data request, read-out pIC50, for `COc1ccc(CCC2=C(Cl)C(=O)c3cc(OC)cc(OC)c3C2=O)cc1`
Response given: 4.53

Challenge: Check `COc1cc(OC)c2c(c1)C(=O)C(O)=C(CCC1CCCCC1)C2=O` too.
Response given: 4.10

Challenge: Check `CCC1=C(O)C(=O)c2cc(OC)cc(OC)c2C1=O` too.
Response given: 4.02

Challenge: Check `O=c1[nH]cc(F)c(=O)[nH]1` too.
Response given: 4.52
